- measured target: Potassium voltage-gated channel subfamily KQT member 1 (Homo sapiens) (UniProt P51787)
- Sequence (P51787 whole entry, looked up): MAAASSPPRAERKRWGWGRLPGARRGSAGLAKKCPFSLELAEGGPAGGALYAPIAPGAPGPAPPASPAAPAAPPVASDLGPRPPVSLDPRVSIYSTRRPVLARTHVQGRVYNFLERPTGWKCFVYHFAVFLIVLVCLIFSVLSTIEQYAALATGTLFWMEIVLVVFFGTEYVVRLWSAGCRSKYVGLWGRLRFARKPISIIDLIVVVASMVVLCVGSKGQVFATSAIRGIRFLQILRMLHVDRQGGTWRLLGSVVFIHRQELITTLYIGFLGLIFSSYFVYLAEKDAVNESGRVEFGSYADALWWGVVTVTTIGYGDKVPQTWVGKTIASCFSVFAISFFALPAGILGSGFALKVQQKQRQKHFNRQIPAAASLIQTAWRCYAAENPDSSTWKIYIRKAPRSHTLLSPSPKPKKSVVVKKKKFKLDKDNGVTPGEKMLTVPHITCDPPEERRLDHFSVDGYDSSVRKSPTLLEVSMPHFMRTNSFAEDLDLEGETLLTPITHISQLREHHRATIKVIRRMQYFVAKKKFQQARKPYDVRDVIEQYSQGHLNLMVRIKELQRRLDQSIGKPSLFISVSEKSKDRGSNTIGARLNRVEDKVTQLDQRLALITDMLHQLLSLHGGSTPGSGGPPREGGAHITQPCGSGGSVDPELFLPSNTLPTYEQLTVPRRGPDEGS
- measurement notes: KCNQ1 potassium channel potentiators, confirmation, FluxOR thallium flux, CHO cells, duplicates (AID 493007)
- condition summary: KCNQ1 cell line, FluxOR thallium flux fluorescence, at 10 µM, % of reference activator effect, buffer zero
Calls of active or inactive are those of the source.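 Rule for the calls: active = potentiation averaged over duplicate wells exceeding buffer-only control mean by more than 3 SD; inactive = the rest.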
Result category, one only: active, inactive

Prompt: Hello, I am checking results. What call was entered for COCCOC(=O)N/C=C\c1nc2ccccc2c(=O)[nH]1 ?
Response: inactive

Prompt: Given Cc1cccc(C(=O)Oc2csc(=S)n2C(=O)c2cccc(C)c2)c1 , state the outcome it received in this test.
Response: active

Prompt: Per the assay record, what outcome was assigned to O=C(c1c[nH]c(C(=O)C(Cl)(Cl)Cl)c1)c1ccc(F)cc1Cl ?
Response: active

Prompt: Field: outcome | Entry: O=C(COc1ccccc1)N1CCN(S(=O)(=O)c2cccs2)CC1
Response: inactive

Prompt: Tell me the recorded outcome of this test for Cc1cc(=O)oc2cc(OCC3CC(c4ccccc4Cl)=NO3)ccc12 (stereo unspecified) .
Response: active

Prompt: What did the test return for CCOc1ccc(-n2cc(C(=O)Nc3cccc(C)n3)c3cc(OC)c(OC)cc3c2=O)cc1 ?
Response: inactive

Prompt: Assay result, entry CC1=CC(=O)C(C(C)C)=CC1=NC(=O)c1ccc(C)cc1 — outcome?
Response: inactive

Prompt: Test call, this compound: Cc1sc2nc[nH]c(=S)c2c1-c1ccccc1
Response: active

Prompt: Assay outcome for O=C1CC(c2ccccc2)CC(O)=C1C=Nc1ccc(O)cc1 (stereo unspecified) : what was it?
Response: inactive

Prompt: Which outcome was entered for the compound CCOc1ncccc1C(=O)OCc1ccc(C#N)cc1 in this test?
Response: active

Prompt: Please share the test call associated with COc1ccc(CN(C)CC(=O)Nc2ccc(Cl)cc2C(F)(F)F)c(OC)c1 .
Response: active
